experimental_target: IRAK4 (Homo sapiens, UniProt Q9NWZ3)
Sequence (Q9NWZ3 whole entry): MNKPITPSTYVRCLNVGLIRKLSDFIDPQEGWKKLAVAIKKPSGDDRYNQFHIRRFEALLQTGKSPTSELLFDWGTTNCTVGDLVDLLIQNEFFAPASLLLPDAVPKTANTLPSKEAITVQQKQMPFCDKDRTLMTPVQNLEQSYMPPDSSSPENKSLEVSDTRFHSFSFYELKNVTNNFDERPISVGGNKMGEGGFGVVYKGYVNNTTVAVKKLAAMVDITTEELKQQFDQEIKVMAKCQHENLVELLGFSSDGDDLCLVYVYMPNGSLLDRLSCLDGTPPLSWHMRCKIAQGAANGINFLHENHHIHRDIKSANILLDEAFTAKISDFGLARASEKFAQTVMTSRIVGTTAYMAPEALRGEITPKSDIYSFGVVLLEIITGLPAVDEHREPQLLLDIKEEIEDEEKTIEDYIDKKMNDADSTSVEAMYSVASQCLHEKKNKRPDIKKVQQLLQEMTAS
assay_procedure: Reaction Biology NanoBRET target engagement assay, IRAK4
Type: cell-based
cond: transfected HEK-293 cells
pIC50: −log10 of the molar value.
Entries and their measured pIC50 follow.

Cn1cc(-c2cn3c(-c4cccc(N[C@@H]5CCCNC5)n4)cnc3cn2)cn1 [Compound 43]    7.08
O=C1CCCN1c1cn2c(-c3nc(N[C@H]4CNCC[C@@H]4F)c(F)cc3F)cnc2cn1 [Compound 107]    8.00
CC(C)(C)c1cn2c(-c3nc(N[C@H]4CNC[C@@H]4F)c(F)cc3F)cnc2cn1 [Compound 125]    > 9.30

So for CC(C)(O)c1cn2c(-c3nc(N[C@H]4CNC[C@@H]4F)c(F)cc3F)cnc2cn1 [Compound 33] , the logged pIC50 turned out to be > 9.30

So for CC1(c2cn3c(-c4cccc(N[C@@H]5CCNC5)n4)cnc3cn2)CC1 [Compound 3] , the logged pIC50 turned out to be > 9.30

These measurements were taken from patent US12612410B2.
